# ASSAY_SYSTEM: POS-1 (Caenorhabditis elegans) binding to mex-3 RNA
# EXPERIMENTAL_PROTOCOL: C. elegans POS-1 RNA interaction disruptors – biochemical, fluorescence polarization, cherry-picked samples, set 2, counter-screen for MEX-5 RNA-binding inhibitor project, dose response (AID 493130);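 further: POS-1 as maltose binding protein fusion made in E. coli with FITC RNA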
# TEST_CONTEXT: POS-1/mex-3 RNA fluorescence polarization, 1 h
Results filed as inconclusive are left out.
MEASUREMENT_NAME: AC50

Recorded AC50, per entry:
Cc1ccc(C(=O)NNC(=O)c2ccc3ccccc3c2O)cc1 | 7.78 µM
CNC(=O)/C(C#N)=C/c1ccc(-c2nc3ccccc3s2)o1 | 3.91 µM
Cc1[nH][nH]c(=O)c1C(c1ccc(O)c([N+](=O)[O-])c1)c1c(C)[nH][nH]c1=O | 7.84 µM
Cc1cccc(N=Nc2c(O)[nH]c3ccc(F)cc23)c1 | 1.87 µM

For the next question, use this compound.
INPUT: # lookup: AC50 of CCCC1=NN2C(=N)/C(=C\c3ccc(SCc4ccco4)o3)C(=O)N=C2S1
OUTPUT: 0.699 µM
